src = PubChem BioAssay AID485317

Experimental Target: FAD-linked sulfhydryl oxidase ALR (Homo sapiens)
Experimental Protocol: ALR-catalysed DTT oxidation blockers – biochemical, H2O2 detection, HRP-luminol luminescence, single point, primary screen (AID 485317)
Condition Summary: purified ALR, hits give high values, concentration not given here
The campaign covered roughly 290,000 compounds. About 11,000 (3.8%) were called active. The sample as a whole holds a higher share of actives than the screen did.
This listing pairs molecules with measured inhibition.
Kindly provide the numeric value in % only, without the unit symbol.

Examples with their reported inhibition follow.
Smi	Experimental Target	Unit Name	inhibition
CC1CCN(C(=O)/C(=C\c2ccccc2)NC(=O)c2ccccc2)CC1	FAD-linked sulfhydryl oxidase ALR (Homo sapiens)	%	8.11
O=C(Cn1cnc2ccccc2c1=O)NNC(=O)c1ccccc1F	FAD-linked sulfhydryl oxidase ALR (Homo sapiens)	%	29.2

get_value(item= O=C(N/C(=C\c1ccc(O)cc1)C(=O)N1CCCCC1)c1ccccc1 , readout=inhibition) returns 99

* * *

Experimental Target: FAD-linked sulfhydryl oxidase ALR (Homo sapiens) (UniProt P55789)
Sequence (P55789 whole entry, looked up): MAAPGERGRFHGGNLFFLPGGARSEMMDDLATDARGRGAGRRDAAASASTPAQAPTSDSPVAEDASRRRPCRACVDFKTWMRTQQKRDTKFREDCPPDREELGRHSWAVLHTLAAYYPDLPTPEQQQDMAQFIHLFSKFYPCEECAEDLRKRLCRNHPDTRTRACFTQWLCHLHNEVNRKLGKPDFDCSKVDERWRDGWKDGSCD
Experimental Protocol: ALR-catalysed DTT oxidation blockers – biochemical, H2O2 detection, HRP-luminol luminescence, single point, primary screen (AID 485317)
Condition Summary: purified ALR, hits give high values, concentration not given here
About 11,000 (3.8%) of roughly 290,000 compounds were called active. The entries come from a sample that favours actives as a whole.
Label scheme for inhibition: lower than 30% is Not fulfilled, 30% and above is Fulfilled.

Compound	Class Assignment
NC(=O)c1c(NC(=O)CSc2nnc(-c3ccco3)n2N)sc2c1CCCC2	Not fulfilled
COc1ccc(N=Nc2ccc(O)c(P(=O)(c3ccccc3)c3ccccc3)c2)cc1	Not fulfilled
COc1ccc(NC(=O)CN(C)C(=O)Cc2coc3cc(C)c(C)cc23)cc1	Not fulfilled
Nc1nc(SCC(=O)Nc2ccc(Cl)cc2C(F)(F)F)n[nH]1	Not fulfilled
CCOC(=O)N1CCN(C(=O)CSc2nc(=O)n3cccc(C)c3n2)CC1	Not fulfilled

query: Does inhibition meet or surpass 30% for COc1cc(OC)cc(-c2c(C#Cc3ccsc3)c3cc(-c4ccc(OC)cc4F)ccc3n2C)c1 ?
result: Not fulfilled

query: Does inhibition meet or surpass 30% for O=C1CSC(c2cccc(F)c2)N1c1ccccc1F (stereo unspecified) ?
result: Fulfilled

query: Does inhibition meet or surpass 30% for COC(=O)/C=C\C(=O)Nc1cccc([N+](=O)[O-])c1 ?
result: Fulfilled

query: Does inhibition meet or surpass 30% for CC(C)CN(C(=O)COC(=O)c1ccc2ccccc2c1)c1c(N)n(Cc2ccccc2)c(=O)[nH]c1=O ?
result: Not fulfilled

query: Does inhibition meet or surpass 30% for COc1ccc(S(=O)(=O)NC(C)C(=O)Nc2cccc([N+](=O)[O-])c2)cc1 (stereo unspecified) ?
result: Not fulfilled

* * *

Experimental Target: FAD-linked sulfhydryl oxidase ALR (Homo sapiens) (UniProt P55789)
Experimental Protocol: ALR-catalysed DTT oxidation blockers – biochemical, H2O2 detection, HRP-luminol luminescence, single point, primary screen (AID 485317)
Condition Summary: purified ALR, hits give high values, concentration not given here
Screen size: about 290,000 compounds; about 11,000 (3.8%) were called active. For the sample, actives were picked, then their nearest neighbours and some compounds at random.
Measured Parameter: inhibition (%)
Kindly provide the numeric value in % only, without the unit symbol.

Examples with their reported inhibition follow.
Smi	Test Value
CCOc1ccc(C(C)=O)cc1COC(=O)CN1C(=O)NC2(CCCC2)C1=O	-0.483
COC1=C/C(=C/c2c(N)n3nc(CC(=O)N4CCOCC4)sc3nc2=O)C=CC1=O	99.1
O=C(NC(=S)Nc1ccc(NC(=O)c2cccs2)cc1)c1ccc([N+](=O)[O-])cc1	-3.61
Cc1ccc2nc(/C(C#N)=C\c3ccc(OC(=O)c4cccs4)cc3)[nH]c2c1	-13.7
CC(C)(C)C(=O)OCc1nc(-c2ccc(O)c(O)c2)cs1	99.4
CC(C)(C)OC(=O)C[C@H]1C/C=C\C[C@@H](CC(=O)N[C@H](CO)Cc2ccccc2)C(=O)NC[C@@H](c2ccccc2)OC1=O	-2.76
O=c1[nH]c(SCc2ccccc2)nnc1-c1ccccc1	-6.49
Cc1ccc(-c2csc(NC(=O)C3=COCCO3)n2)cc1C	83.7
Cc1ccc(OCC(=O)Nc2ccccc2C(=O)NC2CC2)cc1	-2.04
COc1cnn(-c2ccc([N+](=O)[O-])cc2)c(=O)c1Cl	4

Please turn your attention to the following entry.
get_value(item= COc1ccc(OC)c(NC(=O)COC(=O)Cc2ccsc2)c1 , readout=inhibition) returns -0.814
